# System: Mus musculus
# Protocol Notes: Acute lethal toxicity (peroral administration), determined by observing the mortality for 7 days after the administration in mouse
# Assay type: organism-based
# Test Parameters: in vivo, po, 168 h
Readout Label: MLD

Q. Could you share which MLD value was measured for `CC(C)n1cnc2c(=O)n(-c3ccccc3)c3ncccc3c21` ?
A. > 300 mg/kg

Q. Could you share which MLD value was measured for `O=c1c2c(ncn2Cc2ccc(Cl)cc2)c2cccnc2n1-c1ccccc1` ?
A. > 300 mg/kg

Q. Could you share which MLD value was measured for `C=CCn1cnc2c3cccnc3n(-c3ccccc3)c(=O)c21` ?
A. > 300 mg/kg

Q. Could you share which MLD value was measured for `O=c1c2c(ncn2Cc2ccc([N+](=O)[O-])cc2)c2cccnc2n1-c1ccccc1` ?
A. > 300 mg/kg

Q. Could you share which MLD value was measured for `Cc1ccc(Cn2cnc3c4cccnc4n(-c4ccccc4)c(=O)c32)cc1` ?
A. > 300 mg/kg

Q. Could you share which MLD value was measured for `Cn1cnc2c3cccnc3n(-c3ccccc3)c(=O)c21` ?
A. 100 mg/kg

Origin of the recorded values: ChEMBL document CHEMBL1126191
